target: WT-TbpA (Escherichia coli, UniProt P31550)
Sequence (P31550 19-327): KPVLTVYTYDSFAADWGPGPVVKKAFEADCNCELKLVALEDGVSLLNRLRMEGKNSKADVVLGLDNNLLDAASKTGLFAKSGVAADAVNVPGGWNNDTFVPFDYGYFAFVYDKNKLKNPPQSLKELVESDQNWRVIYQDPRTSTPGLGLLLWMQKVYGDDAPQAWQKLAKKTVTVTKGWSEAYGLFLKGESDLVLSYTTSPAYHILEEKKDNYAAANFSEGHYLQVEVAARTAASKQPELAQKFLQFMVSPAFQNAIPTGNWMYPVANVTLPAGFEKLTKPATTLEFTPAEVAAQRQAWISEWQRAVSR
ATTRIBUTE MEASURED: pKd
The scale used: pKd is minus the common logarithm of the concentration in molar units.

Recorded pKd for Cc1ncc(C[n+]2csc(CCO)c2C)c(N)n1 with WT-TbpA (Escherichia coli, UniProt P31550), please? 7.17

====

biological target: Y27A-TbpA (Escherichia coli, UniProt P31550, Y27A); assay: Nanopore recording of ligand binding to Y27A-TbpA inside ClyA-AS
Sequence (P31550 19-327 Y27A): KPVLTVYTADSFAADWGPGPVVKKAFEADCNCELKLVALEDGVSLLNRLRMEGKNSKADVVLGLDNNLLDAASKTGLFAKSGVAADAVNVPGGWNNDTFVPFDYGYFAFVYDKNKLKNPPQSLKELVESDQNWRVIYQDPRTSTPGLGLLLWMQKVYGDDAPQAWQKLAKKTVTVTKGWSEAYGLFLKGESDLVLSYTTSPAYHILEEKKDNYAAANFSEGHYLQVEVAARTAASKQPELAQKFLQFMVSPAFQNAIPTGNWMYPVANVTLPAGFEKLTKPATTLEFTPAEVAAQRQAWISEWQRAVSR
pKd: −log10 of the molar value.
ATTRIBUTE MEASURED: pKd

Fill in: pKd of Cc1ncc(C[n+]2csc(CCO[P@](=O)(O)OP(=O)(O)O)c2C)c(N)n1 [ThDP, thiamine diphosphate] is ___ ~5.70

====

target: Y27A-TbpA (Escherichia coli, UniProt P31550, Y27A); test: Nanopore recording of ligand binding to Y27A-TbpA inside ClyA-AS; details: Kd app(trans), thiamine added to trans
ATTRIBUTE MEASURED: Kd (nM)
Answer in nM, number only, no unit symbol.

Fill in: Kd of Cc1ncc(C[n+]2csc(CCO)c2C)c(N)n1 is ___ 91.1
